Experiment: chemical genetic growth profiling, strain panel (AID 1159580);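 further: tested at 20 µM; growth read once vehicle control cultures reached saturation at 30 °C; 1 = growth at the plate median or of vehicle wells; lower values mean less growth of the strain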
Settings: S. cerevisiae deletion strains, growth OD, locus YKR001C, strain vps1, hits give low values
Screen size: about 5,500 compounds; about 2,000 (36%) were called active. About 18% were inconclusive and are not listed. The list shows a part of the results.
Labelling field: enter label 1 if recorded normalized growth is less than 1. Enter label 0 if it equals or exceeds that cut-off.

| molecule | assigned.label |
| --- | --- |
| CC(=O)O[C@H]1CC[C@@]2(C)C(=CCC3C2CC[C@@]2(C)C3CC[C@@H]2C(C)CCCC(C)C)C1 (stereo partly drawn) | label 0 |
| CCn1cc(C(=O)O)c(=O)c2ccc(C)nc21 | label 1 |
| Cc1cccc(CN2CCN(C(c3ccccc3)c3ccc(Cl)cc3)CC2)c1 (stereo not drawn) | label 1 |
| O=C(O)c1cc(O)c(O)c(O)c1 | label 0 |
| COc1ccc(/C=C/c2cc(O)cc(O)c2)cc1 | label 1 |
| COc1cc(O)cc(/C=C/c2ccccc2)c1 | label 1 |
| COc1ccc2c(c1O)-c1c(OC)c(OC)cc3c1[C@H](C2)N(C)CC3 | label 0 |
| CC(=O)O[C@H]1CC[C@@]2(C)C(=CCC3C2CC[C@]2(C)C(=O)CCC32)C1 (stereo partly drawn) | label 1 |
| CCOC(=O)CCCCCCCCCCCCC1C=CCC1 (stereo not drawn) | label 1 |
| c1cc2c(cc1[C@H]1OC[C@H]3[C@@H]1CO[C@H]3c1ccc3c(c1)OCO3)OCO2 | label 1 |
| CC[C@@]1(C2O[C@@H](C3O[C@@](O)(CC)[C@H](C)C[C@@H]3C)C[C@@H]2C)CC[C@H]([C@]2(C)CCC3(C[C@H](O)[C@@H](C)[C@@H]([C@H](C)[C@@H](OC)[C@H](C)C(=O)O)O3)O2)O1 (stereo partly drawn) | label 0 |
| CC[C@@H](C(=O)O)[C@@H]1O[C@@H]([C@@H](C)[C@H](O)[C@H](C)C(=O)[C@H](CC)[C@H]2O[C@]3(C=C[C@@H](O)[C@]4(CC[C@@](C)(C5CC[C@](O)(CC)[C@H](C)O5)O4)O3)[C@H](C)C[C@@H]2C)[C@@H](C)C[C@H]1C (stereo partly drawn) | label 1 |
| NCCCCN=C(N)N | label 1 |
| CC[C@@H](C(=O)[C@@H](C)[C@@H](O)[C@H](C)[C@@H]1O[C@@H]([C@@H](CC)C(=O)O)CC[C@@H]1C)[C@H]1OC2(C=C[C@@H](O)[C@]3(CC[C@@](C)([C@H]4CC[C@](O)(CC)[C@H](C)O4)O3)O2)[C@H](C)C[C@@H]1C (stereo partly drawn) | label 1 |
| S=c1[nH]c2ccccc2s1 | label 1 |
| C=CC1=C(C)/C(=C/c2[nH]c(Cc3[nH]c(/C=C4\NC(=O)C(C)=C4C=C)c(C)c3CCC(=O)O)c(CCC(=O)O)c2C)NC1=O | label 0 |
| O=C(O)CCCCCCCCCCCCC1C=CCC1 (stereo not drawn) | label 1 |

---

Test: chemical genetic growth profiling, strain panel (AID 1159580);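 further: tested at 20 µM; growth read once vehicle control cultures reached saturation at 30 °C; 1 = growth at the plate median or of vehicle wells; lower values mean less growth of the strain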
Settings: S. cerevisiae deletion strains, growth OD, locus YNL307C, strain MCK1, hits give low values
In all, about 5,500 compounds went through this assay and about 2,000 (36%) were called active. Another 18% or so got no clear call; they are omitted. Some of the results follow.
reported.endpoint: normalized growth

| molecule | reported.endpoint | reported.value |
| --- | --- | --- |
| COc1ccc(C[C@H](N)C(=O)N[C@@H]2[C@@H](CO)OC(n3cnc4c(N(C)C)ncnc43)[C@@H]2O)cc1 (stereo not given in full) | normalized growth | 1.04 |
| O=C(O)c1cc(=O)c2c(OCC(O)COc3cccc4oc(C(=O)O)cc(=O)c34)cccc2o1 | normalized growth | 1.02 |
| CCOP(=S)(OCC)SCCSCC | normalized growth | 0.993 |
| CCCNC(C)C(=O)Nc1ccccc1C (stereo not given) | normalized growth | 0.998 |
| CC(C)C1=CC2=CCC3[C@](C)(CCC[C@]3(C)C(=O)O)C2CC1 (stereo not given in full) | normalized growth | 0.945 |
